Taken from patent US20230131899A1.

Let's look at some compounds and their measured inhibition at 100 µM.
- TESTED TARGET: human α-synuclein (Homo sapiens, UniProt P37840)
- Construct: the full-length gene for untagged human α-synuclein was inserted; made in house; host or cells: E. coli BL21(DE3), plasmid derived from pT7 or pET11a
- ASSAY SUMMARY: Cell-free Thioflavin T assay of α-synuclein aggregation (αSyn ThT Assay)
- Format: biochemical
- CONDITION DESCRIPTION: mean % inhibition of αSyn aggregation relative to DMSO control; αSyn 50 μM; compounds at 100 μM; read-out: αSyn ThT Assay % Inhibition
Hi! Could you send only the number? It should be in %, unit omitted.

O=C(O)C1CN(C[C@@H](O)CO)S(=O)(=O)c2c(-c3cccc(C(F)(F)F)c3)c(Cc3cccc4ccccc34)cc(=O)n21 (mixture of isomers) [Compound 065b]	9

Given the entry CN(C)Cc1c(Cc2cccc3ccccc23)c(-c2cccc(C(F)(F)F)c2)c2n(c1=O)C(C(=O)O)CS2 (stereo not shown) [Compound 075] , report its measured inhibition at 100 µM.
2

Entry Nc1c(Cc2cccc3ccccc23)c(-c2cccc(C(F)(F)F)c2)c2scc(C(=O)O)n2c1=O [Compound 050] : reported inhibition at 100 µM = ?
49

Name the reported inhibition at 100 µM value associated with the compound NC(=O)CN1CC(C(=O)O)n2c(c(-c3cccc(C(F)(F)F)c3)c(Cc3cccc4ccccc34)cc2=O)S1(=O)=O (stereo not shown) [Compound 028]
33

Form field: reported inhibition at 100 µM of O=C(O)c1c(CCc2ccccc2)sc2c(-c3cccc(C(F)(F)F)c3)c(Cc3cccc4ccccc34)cc(=O)n12 [Compound 062]
87

Which inhibition at 100 µM is listed for O=C(O)c1csc2c(-c3cccc(C(F)(F)F)c3)c(Cc3cccc4ccccc34)cc(=O)n12 [Compound 019] ?
41

Reported inhibition at 100 µM, compound O=C(O)C1n2c(c(-c3cccc(C(F)(F)F)c3)c(Cc3cccc4ccccc34)nc2=O)SC12CCCC2 (stereo not shown) [Compound 053] : ____
65
